Test system: mitochondrial cytochrome C oxidase subunit II (COXII) gene
Format: cell-based, human
Details: COXII DNA normalized to β-actin DNA, 2-ΔΔCt; HepG2, 10 μM, 7 days
Reported COXIINβ-actin DNA (range) relative to control values are given for each entry in this list.

Would you please look over these solved cases?
Nc1nc2c(ncn2COCCO)c(=O)[nH]1 [ACV, 9-(2-hydroxyethoxymethyl)guanine] : 1.45 (1.34-1.52)
Nc1ccn([C@@H]2CS[C@H](CO)O2)c(=O)n1 [Compound 3TC, (−)-β-2′,3′-dideoxy-3′-thiacytidine, reference compound] : 1.02 (0.75-1.37)
Nc1ccn(C2CSC(CO)O2)c(=O)n1 (single isomer, unassigned; (+)) [(+)-BCH-189, (+)-β-2′,3′-dideoxy-3′-thiacytidine] : 0.17 (0.14-0.22)

Let us examine a further case.
Q) Can you look up the measured COXIINβ-actin DNA (range) relative to control of Cc1cn([C@H]2C=C[C@@H](CO)O2)c(=O)[nH]c1=O [D-D4T, β-D-2′,3′-didehydro-3′-deoxythymidine] for me?
A) 0.85 (0.79-0.88)
